All values here come from ChEMBL document CHEMBL1138900.

assay: Clearance in rat; type: ADME, organism-based; conditions: in vivo
propertyMeasured: clearance (mL/min/kg)
Give bare numbers, in mL/min/kg.

Example entries begin here.
**Q:** I am curious: what clearance value has been reported for CC(C)C[C@@H]1C(=O)N[C@H](C2Cc3ccccc3C2)C(=O)N1[C@@H](C(=O)N(C)C)c1ccc(F)cc1F ?
**A:** 15

**Q:** I am curious: what clearance value has been reported for CC(C)C[C@@H]1C(=O)N[C@H](C2Cc3ccccc3C2)C(=O)N1[C@@H](C(=O)NC(C)C)c1ccc2occc2c1 ?
**A:** 9

Kindly consider the entry below.
**Q:** I am curious: what clearance value has been reported for CC(C)C[C@@H]1C(=O)N[C@H](C2Cc3ccccc3C2)C(=O)N1[C@@H](C(=O)NC(C)(C)C)c1ccc(N2CCC(O)CC2)cc1 ?
**A:** 26
